System: subgenomic genotype 2a replicon cell line
Experiment: HCV replicon assay, genotype 2a
Format: cell-based, HCV genotype 2a
Details: Hepatitis C virus
pEC50: −log10 of the molar value.
Classification field: enter Fulfilled for pEC50 values not below 6, Not fulfilled for values below it.

In [3]: df
Out[3]:
                                smiles_data    label_class
0  CCN(c1cc2nn(-c3ccc(NCC(C)C)cc3)c(C(=O)NC)c2cc1C1CC1)S(C)(=O)=O      Fulfilled
1  CNC(=O)c1c2cc(C3CC3)c(N(CCCNC(=O)c3cccnc3)S(C)(=O)=O)cc2nn1-c1ccc(Br)cc1  Not fulfilled
2  CCCC(=O)NCCCN(c1cc2nn(-c3ccc(Br)cc3)c(C(=O)NC)c2cc1C1CC1)S(C)(=O)=O  Not fulfilled

====

Biological target: 1b (BK) NS5bΔ21 (Hepatitis C virus genotype 1b (isolate BK) (HCV))
Sequence (P26663 2420-2989): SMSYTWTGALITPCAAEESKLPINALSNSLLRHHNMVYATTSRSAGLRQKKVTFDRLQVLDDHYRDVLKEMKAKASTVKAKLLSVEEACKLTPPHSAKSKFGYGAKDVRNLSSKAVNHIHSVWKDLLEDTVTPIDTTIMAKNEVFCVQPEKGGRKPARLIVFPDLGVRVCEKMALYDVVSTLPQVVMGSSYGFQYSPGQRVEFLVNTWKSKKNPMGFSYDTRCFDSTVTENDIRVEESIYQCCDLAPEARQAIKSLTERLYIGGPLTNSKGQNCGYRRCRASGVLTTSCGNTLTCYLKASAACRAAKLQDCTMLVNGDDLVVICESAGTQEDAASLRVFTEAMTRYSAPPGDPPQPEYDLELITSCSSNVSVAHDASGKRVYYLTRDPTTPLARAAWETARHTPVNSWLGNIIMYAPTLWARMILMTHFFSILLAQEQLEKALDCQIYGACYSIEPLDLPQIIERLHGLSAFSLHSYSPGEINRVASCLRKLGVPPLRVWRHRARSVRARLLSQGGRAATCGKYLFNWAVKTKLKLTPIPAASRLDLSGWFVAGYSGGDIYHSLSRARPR
Assay: HCV polymerase inhibition assay, genotype 1b
Type: biochemical, HCV genotype 1b (BK)
Settings: 1b (BK) NS5bΔ21, 33P-GTP incorporation; read-out: 1b polymerase IC50 (range class)
Entries annotated with measured IC50
READOUT_TYPE: IC50

                                    compound  readout_type          obs_value
 0  CCNC(=O)CCN(c1cc2nn(-c3ccc(Br)cc3)c(C(=O)NC)c2cc1C1CC1)S(C)(=O)=O [Compound 162]          IC50    1000 to 9990 nM
 1  CNC(=O)c1c2cc(C3CC3)c(-c3c(C)noc3C)cc2nn1-c1ccc(F)cc1 [Compound 83]          IC50  10000 to 50000 nM
 2  CNC(=O)c1c2cc(C3CC3)c(N(CCCNC(=O)c3ccco3)S(C)(=O)=O)cc2nn1-c1ccc(Br)cc1 [Compound 181]          IC50           < 990 nM
 3  CNC(=O)c1c2cc(C3CC3)c(N(CCCNC(=O)c3cccc(OC)c3F)S(C)(=O)=O)cc2nn1-c1ccc(Br)cc1 [Compound 189]          IC50           < 990 nM
 4  CNC(=O)c1c2cc(C3CC3)c(N(CCN3CCCCC3)S(C)(=O)=O)cc2nn1-c1ccc(Oc2ccc(F)cc2)cc1 [Compound 114]          IC50    1000 to 9990 nM
 5  CNC(=O)c1c2cc(C3CC3)c(N(CCCNC(=O)CCC(=O)OC)S(C)(=O)=O)cc2nn1-c1ccc(Br)cc1 [Compound 66]          IC50           < 990 nM
 6  CNC(=O)c1c2cc(C3CC3)c(N(CCCSC)S(C)(=O)=O)cc2nn1-c1ccc(Br)cc1 [Compound 99]          IC50           < 990 nM
 7  CCN(c1cc2nn(-c3ccc(F)cc3)c(C(=O)NC)c2cc1/C=C\CO)S(C)(=O)=O [Compound 76]          IC50  10000 to 50000 nM
 8  CNC(=O)c1c2cc(C3CC3)c(N(CCO)S(C)(=O)=O)cc2nn1-c1ccc(Nc2ccc(F)cc2)cc1 [Compound 19]          IC50           < 990 nM
 9  CNC(=O)c1c2cc(C3CC3)c(NS(C)(=O)=O)cc2nn1-c1ccc(Br)cc1 [Compound 1]          IC50  10000 to 50000 nM
10  CNC(=O)c1c2cc(C3CC3)c(N(C)S(C)(=O)=O)cc2nn1-c1ccc(Br)cc1 [Compound 234]          IC50           < 990 nM
11  CNC(=O)c1c2cc(C3CC3)c(N(CCCNC(=O)[C@H]3C[C@H]3C(=O)OC)S(C)(=O)=O)cc2nn1-c1ccc(Br)cc1 [Compound 204]          IC50           < 990 nM
12  CNC(=O)c1c2cc(C3CC3)c(N(CCCOC)S(C)(=O)=O)cc2nn1-c1ccc(Br)cc1 [Compound 213]          IC50           < 990 nM
13  CCN(c1cc2nn(-c3ccc(F)cc3)c(C(=O)NC)c2cc1C#CCO)S(C)(=O)=O [Compound 75]          IC50    1000 to 9990 nM
14  CNC(=O)c1c2cc(C3CC3)c(N(CCN3CCOCC3)S(C)(=O)=O)cc2nn1-c1ccc(Oc2ccc(F)cc2)cc1 [Compound 112]          IC50           < 990 nM
15  CNC(=O)c1c2cc(C3CC3)c(N(CCCC(=O)O)S(C)(=O)=O)cc2nn1-c1ccc(Br)cc1 [Compound 89]          IC50           < 990 nM
16  CNC(=O)c1c2cc(C3CC3)c(N(CCCC(=O)OC(C)C)S(C)(=O)=O)cc2nn1-c1ccc(Br)cc1 [Compound 220]          IC50           < 990 nM
17  CNC(=O)c1c2cc(C3CC3)c(N3CCNS3(=O)=O)cc2nn1-c1ccc(Br)cc1 [Compound 103]          IC50    1000 to 9990 nM
18  CNC(=O)c1c2cc(C3CC3)c(N(CCCNC(=O)CCC(=O)O)S(C)(=O)=O)cc2nn1-c1ccc(Br)cc1 [Compound 68]          IC50           < 990 nM
19  CCN(c1cc2nn(-c3ccc(Nc4ccccc4F)cc3)c(C(=O)NC)c2cc1C1CC1)S(C)(=O)=O [Compound 25]          IC50           < 990 nM
20  CNC(=O)CCN(c1cc2nn(-c3ccc(Br)cc3)c(C(=O)NC)c2cc1C1CC1)S(C)(=O)=O [Compound 148]          IC50           < 990 nM
21  CNC(=O)c1c2cc(C3CC3)c(N(CCCF)S(C)(=O)=O)cc2nn1-c1ccc(Cl)cc1 [Compound 57]          IC50           < 990 nM
22  CCN(c1cc2nn(-c3ccc(NCC(C)C)nc3)c(C(=O)NC)c2cc1C1CC1)S(C)(=O)=O [Compound 110]          IC50           < 990 nM
23  CNC(=O)c1c2cc(C3CC3)c(N(CCCC(=O)NS(=O)(=O)C(F)(F)F)S(C)(=O)=O)cc2nn1-c1ccc(Br)cc1 [Compound 196]          IC50           < 990 nM
24  CCC(C)OC(=O)CCCN(c1cc2nn(-c3ccc(Br)cc3)c(C(=O)NC)c2cc1C1CC1)S(C)(=O)=O (centres unmarked) [Compound 92]          IC50           < 990 nM
25  CCOC(=O)CCCN(c1cc2nn(-c3ccc(Br)cc3)c(C(=O)NC)c2cc1C1CC1)S(C)(=O)=O [Compound 88]          IC50           < 990 nM
26  CCN(c1cc2nn(-c3ccc(Br)cc3)c(C(=O)NC)c2cc1C1CC1)S(C)(=O)=O [Compound 20]          IC50           < 990 nM
27  CNC(=O)c1c2cc(C3CC3)c(N(CCCOC(=O)c3cnccn3)S(C)(=O)=O)cc2nn1-c1ccc(Oc2ccc(F)cc2)cc1 [Compound 118]          IC50           < 990 nM
28  CNC(=O)c1c2cc(C3CC3)c(N(CCCNC(=O)c3nonc3C)S(C)(=O)=O)cc2nn1-c1ccc(Br)cc1 [Compound 179]          IC50           < 990 nM
